- Tested on: Saccharomyces cerevisiae
- procedure.text: protein stability index of tFT-peptide fusion (C-terminal peptide) (PSI (0-1 scale)); higher = more stable (slower turnover)
- test.settings: genetic background: doa10 deletion; temperature: 30 C
Parameter threshold = 0.3. Response is satisfied when protein stability index meets or exceeds it, else not satisfied.

IN: Hello, I need to know if VCNSIPLTPPPA has measured protein stability index not below 0.3. Thanks!
OUT: satisfied

IN: State whether the measured protein stability index reaches 0.3, counting equality as reaching it, for LGSYIFVVVIYF
OUT: not satisfied

IN: Given the entry VCYLMRSLTFAY , answer whether its protein stability index meets or surpasses 0.3.
OUT: satisfied

IN: Is protein stability index for CGGVQVWRVKVV at or above 0.3?
OUT: not satisfied

IN: Could you verify whether the entry RFLPYLPTPLSP shows protein stability index of no less than 0.3?
OUT: satisfied

IN: Item MRVYLVLWADSC with protein stability index of 0.3 or above?
OUT: not satisfied

IN: Hi team, for LFLVLFCVVGFV , is the recorded protein stability index at or above 0.3?
OUT: not satisfied

IN: Decide: is the reported value of protein stability index for STNMDNRIRTLA equal to or greater than 0.3?
OUT: satisfied

IN: Is protein stability index for PFVATRVSCFLT at or above 0.3?
OUT: satisfied

IN: Record VSFLVSIFVSGV ; criterion: protein stability index no lower than 0.3. Met?
OUT: not satisfied

IN: Hi, just wondering whether RWTKMNNLIIEF shows protein stability index of 0.3 or higher.
OUT: satisfied

###

- Tested on: Saccharomyces cerevisiae
- procedure.text: protein stability index of tFT-peptide fusion (C-terminal peptide) (PSI (0-1 scale)); higher = more stable (slower turnover)
- test.settings: genetic background: wild type; temperature: 30 C
Entries and their protein stability index
Write no unit; give the number alone.

ASEHRPPRPHER	0.683
CCVFFLLCLSLF	0.354
VSWLSTKCWTIL	0.563
TLYLCALPALSR	0.615
RPPFPLRTSPLV	0.694
SSLPVPGPFVND	0.69
GWPLWGAVRGFW	0.71
IKKKQKIPKNAK	0.678

IN: Using the record for SSHVPPDLPSLH , report its protein stability index.
OUT: 0.692

IN: Look up protein stability index for this sequence: LVGFGGGGHGVV
OUT: 0.696

IN: // protein stability index lookup, key: LRRAPPSPPPPP
OUT: 0.716

IN: Item SSPALPPQPPSH has what recorded protein stability index?
OUT: 0.723

IN: Record request: protein stability index value, item EAVVWGTLLCGG
OUT: 0.694

IN: protein stability index for FLGLFHTVKKWQ ?
OUT: 0.684

###

- System: Saccharomyces cerevisiae
- procedure.text: protein stability index of tFT-peptide fusion in wild type (PSI (0-1 scale)); higher = more stable (slower turnover)
- test.settings: genetic background: wild type
Reported protein stability index is given for each of the following sequences.
Provide a numeric answer; units are not to be included.

AITLPMCPLRLR	0.453
RVTRLDMIYFRI	0.236
CRGAVGGWRLVG	0.163
AQTLPMCPLLLR	0.394
KKHKKGQKQNIN	0.618

IN: Lab note: need protein stability index for LVSYLSCVACIN on Saccharomyces cerevisiae, anyone have it?
OUT: 0.0799

IN: Checklist item: protein stability index tested on Saccharomyces cerevisiae, entry LKILRQKMNHGN , value?
OUT: 0.47

IN: Under Saccharomyces cerevisiae: protein stability index value of LVVVLSCVACIN ?
OUT: 0.0126

IN: Tell me reported protein stability index for CLVSLPILQFFR , tested with Saccharomyces cerevisiae.
OUT: 0.623

###

- Test system: Saccharomyces cerevisiae
- procedure.text: protein stability index of tFT-peptide fusion (C-terminal peptide) (PSI (0-1 scale)); higher = more stable (slower turnover)
- test.settings: genetic background: wild type; temperature: 30 C
If the reported protein stability index equals or exceeds 0.7, assign 1. If not, assign 0.

// known answers, use as guide
AFCLLSSLASGF	1
SRNLRRLEIRRE	1
VLLCGCVWLWWG	0
PPRRPSPPSPHP	0
LIDKPNNGVWIS	0

IN: Identify whether the reported protein stability index of the following sequence is 0.7 or greater: GQFASFQSTRPP
OUT: 1

IN: Kindly determine if protein stability index recorded for RALGKRFIQARD is above or exactly 0.7.
OUT: 1

IN: Form field: protein stability index at least 0.7? Entry: LFTLSGAPLALP
OUT: 1

IN: Answer whether protein stability index of FVGDPRRLSLPI is greater than or equal to 0.7.
OUT: 1

IN: Does PYAHTKGSLGML have a reported protein stability index of at least 0.7?
OUT: 0

IN: Reported protein stability index at or above 0.7? VYASMFRAAWPF
OUT: 1

IN: Reported protein stability index reaches at least 0.7 for YILRLMMEGICL ?
OUT: 0

IN: Please indicate if the recorded protein stability index for TRDVPVTPQWGY meets or exceeds 0.7.
OUT: 0

IN: # bool: protein stability index of RHVSHASRLTPG >= 0.7
OUT: 0

IN: API: above_or_equal(metric=protein stability index, cutoff=0.7) for item LSSRGGRCRRLV
OUT: 0

IN: Identify whether the reported protein stability index of the following sequence is 0.7 or greater: TSIDVLKCVYIQ
OUT: 0

IN: Kindly determine if protein stability index recorded for GEDGCGWSEAGG is above or exactly 0.7.
OUT: 0

###

- Test system: Saccharomyces cerevisiae
- procedure.text: protein stability index of tFT-peptide fusion (C-terminal peptide) (PSI (0-1 scale)); higher = more stable (slower turnover)
- test.settings: genetic background: wild type; temperature: 30 C
assay.readout: protein stability index
Answer with the value's number alone.

IN: Sample PCRLTRSPRTLP — what was its protein stability index?
OUT: 0.689

###

- Test system: Saccharomyces cerevisiae
- procedure.text: protein stability index of tFT-peptide fusion (C-terminal peptide) (PSI (0-1 scale)); higher = more stable (slower turnover)
- test.settings: genetic background: wild type; temperature: 30 C
Please use 1 whenever protein stability index is not below 0.7, and -1 whenever it is.

EFSTLFDDYKDN [YRR1 C-terminal 12 aa]	1
RKYPNQCGTISN [EXG1 C-terminal 12 aa]	-1
KDEPVKAHNKLK [SAS5 C-terminal 12 aa]	-1
SRIIIKAARGII [YOR082C C-terminal 12 aa]	-1
GTKEYYKGYEYL [MRX16 C-terminal 12 aa]	-1

IN: Decide: is the reported value of protein stability index for LQKFYLQVSTIS [YFR054C C-terminal 12 aa] equal to or greater than 0.7?
OUT: -1

IN: Answer whether protein stability index of VETELEMVAEKA [YEH1 C-terminal 12 aa] is greater than or equal to 0.7.
OUT: -1

IN: Could you tell me if the measured protein stability index of LIAEILLARNLI [HOM2 C-terminal 12 aa] reaches 0.7 or more?
OUT: -1

IN: Evaluate ALGRKTSNGGRI [MKS1 C-terminal 12 aa] : protein stability index at minimum 0.7?
OUT: 1

IN: Please indicate if the recorded protein stability index for STKATPTDLSKL [MLS1 C-terminal 12 aa] meets or exceeds 0.7.
OUT: 1

IN: protein stability index >= 0.7 for FSFSIFFFFCLA [YFR035C C-terminal 12 aa] ?
OUT: -1

###

- Tested on: Saccharomyces cerevisiae
- procedure.text: protein stability index of tFT-peptide fusion (C-terminal peptide) (PSI (0-1 scale)); higher = more stable (slower turnover)
- test.settings: genetic background: wild type; temperature: 37 C
Cut-off 0.5 on protein stability index, inclusive. At or above means t; below means f.

Record excerpt, results attached:
SFVLLSSFLVFV	f
RLFIIYLLNIQG	t
GVYRLCLLLLVY	f
LVFSFFFLFFFM	f
KYKANLGNLKVH	f

IN: I'd appreciate it if you could say whether ARGVAAAFVSGF has protein stability index at least equal to 0.5.
OUT: t

IN: # check: protein stability index of PHVSALSRDPES is greater than or equal to 0.5
OUT: t

IN: Kindly determine if protein stability index recorded for NFSLFVHFLGLC is above or exactly 0.5.
OUT: t

###

- Tested on: Saccharomyces cerevisiae
- procedure.text: protein stability index of tFT-peptide fusion in wild type (PSI (0-1 scale)); higher = more stable (slower turnover)
- test.settings: genetic background: wild type
// map protein stability index onto a label; ranges Low: < 0.2; Medium: ≥ 0.2 and < 0.3; High: ≥ 0.3

LVVYLSCVKCIN	Low
VRGAVGGSRLVG	High
MRGAVGGWRLVG	Low
RSLRVLLPLYFRP	Medium
PTSCGYKFRTNN	Medium

Now for a further sequence.
IN: # bin label for CLVSLPILAFFR
OUT: Low
